# testSystem: PARP2 L269A-mCherry (Homo sapiens, UniProt Q9UGN5, L282A)
# Sequence (Q9UGN5 other isoform, or with tags, fused parts or gaps L269A): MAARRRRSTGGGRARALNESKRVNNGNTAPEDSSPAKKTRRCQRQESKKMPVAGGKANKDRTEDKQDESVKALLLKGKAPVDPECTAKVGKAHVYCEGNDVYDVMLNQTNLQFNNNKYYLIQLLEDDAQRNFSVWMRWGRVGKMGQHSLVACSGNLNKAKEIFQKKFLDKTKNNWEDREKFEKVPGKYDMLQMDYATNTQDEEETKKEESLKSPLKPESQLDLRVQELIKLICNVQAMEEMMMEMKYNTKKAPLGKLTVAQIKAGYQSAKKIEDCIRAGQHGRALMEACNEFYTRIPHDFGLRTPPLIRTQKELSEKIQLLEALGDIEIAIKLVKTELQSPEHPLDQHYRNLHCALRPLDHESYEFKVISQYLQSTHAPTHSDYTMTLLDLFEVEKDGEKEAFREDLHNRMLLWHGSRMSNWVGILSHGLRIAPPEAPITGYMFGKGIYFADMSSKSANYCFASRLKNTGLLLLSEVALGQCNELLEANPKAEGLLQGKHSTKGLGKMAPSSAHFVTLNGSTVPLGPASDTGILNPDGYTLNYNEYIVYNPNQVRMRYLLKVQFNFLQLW
# assayExplanation: cell-based
# Assay type: cell-based
# assayContext: PARP2 L269A-mCherry EC50
assayEndpoint: pEC50
// pEC50: -log10(molar conc.)

{"columns": ["smi", "pEC50"],
 "data": [
  ["Oc1cccc2c(O)nccc12", 6.00]
]}

Now for a further molecule.
The recorded pEC50 for `O=C(c1cc(Cn2c(=O)[nH]c(=O)c3c(F)cccc32)ccc1F)N1CCN(c2ncccn2)CC1` is 8.28

* * *

# Test system: U-2 OS cells
# assayContext: read-out: S/G2 shift EC50, shHPF1; HPF1 knockdown, 24 h PARPi
assayEndpoint: EC50 (nM)
Value expressed in nM; do not type the unit.

The recorded EC50 for C[C@]1(c2nc3c(C(N)=O)cccc3[nH]2)CCCN1 [Veliparib] is 55

* * *

# testSystem: PARP2 L269A-mCherry (Homo sapiens, UniProt Q9UGN5, L282A)
# assayExplanation: cell-based
# Assay type: cell-based
# assayContext: PARP2 L269A-mCherry EC50, CeTEAM stabilization, live U-2 OS dual biosensor cells, 24 h PARPi gradient, n = 3
assayEndpoint: EC50 (nM)
Value expressed in nM; do not type the unit.

{"columns": ["molecule", "testValue"],
 "data": [
  ["O=C(c1cc(Cc2n[nH]c(=O)c3ccccc23)ccc1F)N1CC(CNC2CC2)C1 [Venadaparib]", 5.94],
  ["COC1CCN(C(=O)c2cc(Cc3n[nH]c(=O)c4ccccc34)ccc2F)CC1 [AZD2461]", 36.3],
  ["CNCc1ccc(-c2cc3cc(F)cc(C(N)=O)c3o2)cc1 [Mefuparib]", 91.6],
  ["O=C(c1cc(Cc2n[nH]c(=O)c3ccccc23)ccc1F)N1CCn2nc(C(F)(F)F)nc2C1 [Fluzoparib]", 27.3]
]}

The recorded EC50 for C[C@]12CCCN1CC1=NNC(=O)c3cc(F)cc4[nH]c2c1c34 [Pamiparib] is 1.47

The recorded EC50 for CN(C)Cc1ccc(-c2nc3cccc4c3n2CCNC4=O)cc1 [AG14361] is 84

* * *

# testSystem: PARP2 L269A-mCherry (Homo sapiens, UniProt Q9UGN5, L282A)
# assayExplanation: cell-based
# Format: cell-based
# assayContext: PARP2 L269A-mCherry stabilization EC50
assayEndpoint: pEC50
// pEC50: -log10(molar conc.)

The recorded pEC50 for O=C(c1cc(Cn2c(=O)[nH]c(=O)c3c(F)cccc32)ccc1F)N1CCN(c2ncccn2)CC1 [Senaparib] is 8.28

* * *

# testSystem: PARP2 L269A-mCherry (Homo sapiens, UniProt Q9UGN5, L282A)
# assayExplanation: cell-based
# Format: cell-based
# assayContext: CeTEAM stabilization, live U-2 OS dual biosensor cells, 24 h PARPi gradient, n = 3; read-out: PARP2 L269A-mCherry EC50
Catalogue of compounds with associated pEC50
// pEC50: -log10(molar conc.)

Field: example entries. Status: answers known.
{"columns": ["compound", "pEC50"],
 "data": [
  ["O=c1[nH]c(SCCN2CCN(c3ccccn3)CC2)nc2ccccc12 [MC2050]", 5.60],
  ["Cn1cccc1/C=C1\\C(=O)NC(=O)c2ccccc21 [BYK204165]", 5.78]
]}

The recorded pEC50 for CC(C)(O)c1ccc(-c2nc3c(F)cc(F)cc3c(=O)[nH]2)cc1 [Tankyrase-IN-2] is 4.88
